Where these numbers come from: patent US4745067A

tested on: L-aminoacylase S1; assay: Substrate profile of L-aminoacylase S1; assay type: biochemical, Streptomyces hachijoensis; settings: compound used as substrate, L-N-acetyl-methionine evaluated to be 100
// reported Relative activity (%) for each item listed

MOLECULE | Relative activity (%)
CC(=O)N[C@H]1C(O)O[C@H](CO)[C@@H](O)[C@@H]1O (some centres unmarked) | 0
CC(=O)N[C@@H](Cc1c[nH]cn1)C(=O)O | 41
CSCC[C@@H](NC(C)=O)C(=O)O | 0
CC(=O)N[C@@H](C)C(=O)O | 7
CC(=O)N[C@H](Cc1c[nH]c2ccccc12)C(=O)O | 0
CC(=O)N[C@@H](CCC(=O)O)C(=O)O | 19
CC(=O)N[C@@H](Cc1c[nH]c2ccccc12)C(=O)O | 80
CC(=O)N[C@H](C(=O)O)[C@H](O)c1ccc(OCc2ccccc2)c(OCc2ccccc2)c1 | 14
CC(=O)N[C@@H](CC(C)C)C(=O)O | 76
CSCC[C@H](NC=O)C(=O)O | 4
CC(=O)N[C@H](C(=O)O)C(C)C | 42
CC(=O)NC(C)c1ccccc1 (racemic) | 0
CC(=O)NCC(=O)O | 2
CC(=O)N[C@@H](CCCNC(=N)N)C(=O)O | 85
CC(=O)N[C@@H](Cc1ccccc1)C(=O)O | 197
CSCC[C@H](NC(C)=O)C(=O)O | 100
CC(=O)N[C@H](C(=O)O)c1ccc(CO)c(O)c1 | 41

----------
tested on: L-aminoacylase S2; assay: Influence of metal ions on L-aminoacylase S2; assay type: biochemical, Streptoverticillium rimofaciens; settings: 1 mM metal salt, 37° C. 1 hour, substrate N-Ac-DB-DOPS, no metal salt added = 100%
READOUT_KIND: Relative activity (%)

MOLECULAR_STRING | EXPERIMENTAL_TARGET | VALUE_REPORTED
[Cu+2] | L-aminoacylase S2 | 16%
[Ni+2] | L-aminoacylase S2 | 33%
[Ag+] | L-aminoacylase S2 | 0%
[Mg+2] | L-aminoacylase S2 | 95%
[Ca+2] | L-aminoacylase S2 | 98%
[Co+2] | L-aminoacylase S2 | 38%
[Hg+2] | L-aminoacylase S2 | 15%
[Fe+2] | L-aminoacylase S2 | 18%
[Mn+2] | L-aminoacylase S2 | 31%
[Zn+2] | L-aminoacylase S2 | 71%

----------
system: L-aminoacylase S2; assay: Substrate profile of L-aminoacylase S2; type: biochemical, Streptoverticillium rimofaciens; conditions: compound used as substrate, L-N-acetyl-methionine evaluated to be 100
READOUT_KIND: Relative activity (%)

COMPOUND | VALUE_REPORTED
CC(=O)NCC(=O)O | 2
CSCC[C@H](NC(=O)c1ccccc1)C(=O)O | 10
CC(=O)NC(C)c1ccccc1 (racemic) | 0
CSCC[C@H](NC(C)=O)C(=O)O | 100
CC(=O)N[C@@H](Cc1c[nH]cn1)C(=O)O | 36
CSCC[C@@H](NC(C)=O)C(=O)O | 0
CC(=O)N[C@H]1C(O)O[C@H](CO)[C@@H](O)[C@@H]1O (stereo partly shown) | 0
CC(=O)N[C@@H](CC(C)C)C(=O)O | 71
CC(=O)N[C@H](C(=O)O)[C@H](O)c1ccc(OCc2ccccc2)c(OCc2ccccc2)c1 | 20
CC(=O)N[C@@H](Cc1ccc(O)cc1)C(=O)O | 137
CC(=O)N[C@H](C(=O)O)c1ccc(CO)c(O)c1 | 65
CC(=O)N[C@H](Cc1c[nH]c2ccccc12)C(=O)O | 0
CC(=O)N[C@H](C(=O)O)C(C)C | 35
CC(=O)N[C@@H](C)C(=O)O | 8
CC(=O)N[C@@H](Cc1ccccc1)C(=O)O | 286
CC(=O)N[C@@H](Cc1c[nH]c2ccccc12)C(=O)O | 98
CSCC[C@H](NC=O)C(=O)O | 5
CC(=O)N[C@@H](CCCNC(=N)N)C(=O)O | 61
CC(=O)N[C@@H](CCC(=O)O)C(=O)O | 18
